System: retinal endothelial cells (REC)
Experimental details: REC proliferation assay (MTS cell number)
Assay type: cell-based, bovine
Experimental parameters: basal and growth factor-stimulated (quercetin 50 μM, emodin, DRB 20-25 μM); H-7: preliminary, not shown
Readout: inhibition of REC proliferation

{"Molecule": "OC[C@H]1O[C@@H](n2cnc3cc(Cl)c(Cl)cc32)[C@H](O)[C@@H]1O", "Target under test": "retinal endothelial cells (REC)", "Readout": "inhibition of REC proliferation", "Result": "potently inhibited"}
{"Molecule": "Cc1cc(O)c2c(c1)C(=O)c1cc(O)cc(O)c1C2=O [emodin, 3-methyl-1,6,8-trihydroxyanthraquinone]", "Target under test": "retinal endothelial cells (REC)", "Readout": "inhibition of REC proliferation", "Result": "potently inhibited"}
{"Molecule": "O=c1c(O)c(-c2ccc(O)c(O)c2)oc2cc(O)cc(O)c12", "Target under test": "retinal endothelial cells (REC)", "Readout": "inhibition of REC proliferation", "Result": "potently inhibited"}

// data source = patent US20040121968A1
